Ref: patent US4789630A

- Test: Solubility of TMB in a series of buffers
- Format: physicochemical
- Condition Summary: aqueous buffer; maleate buffer, pH 5.0, 0.10M; read-out: Solubility at 30.9 C
Property Measured: solubility (µM)
Answers are plain numbers, in µM.

Given item Cc1cc(-c2cc(C)c(N)c(C)c2)cc(C)c1N [TMB, 3,3',5,5'-tetramethylbenzidine] , the value recorded as its solubility is 210

---

- Test: Solubility of TMB in a series of buffers
- Assay type: physicochemical
- Condition Summary: oxalate buffer, pH 5, aqueous buffer; read-out: Solubility at 30.9 C
Property Measured: solubility
Just the number plus its unit, please.

Given item Cc1cc(-c2cc(C)c(N)c(C)c2)cc(C)c1N [TMB, 3,3',5,5'-tetramethylbenzidine] , the value recorded as its solubility is 160 µM

---

- Test: Solubility of TMB in a series of buffers
- Type: physicochemical
- Condition Summary: aqueous buffer; glutarate buffer, pH 5.0, 0.10M; read-out: Solubility at 30.9 C
Property Measured: solubility (µM)
Give bare numbers, in µM.

Given item Cc1cc(-c2cc(C)c(N)c(C)c2)cc(C)c1N [TMB, 3,3',5,5'-tetramethylbenzidine] , the value recorded as its solubility is 170
